# ASSAY_NOTES: in vivo
# CONDITION_PARAMETERS: C57BL/10, mouse, plasma, oral, 30 mg/kg
READOUT_LABEL: AUC (ng·h/mL)

C[C@@H]1C[C@H]2[C@@H]3CCC4=CC(=O)C=C[C@]4(C)C3=CC[C@]2(C)[C@@]1(O)C(=O)CO : 33900

###

# Tested on: P-gp (MDR1)
# ASSAY_NOTES: MDR1-MDCK permeability / P-gp efflux assay
# CONDITION_PARAMETERS: MDCK-MDR1, pH 7.4
# Experimental: To measure transport by P-gp, Madin-Darby canine kidney (MDCK) cells that had been transfected with the human P-gp (MDR1) gene were plated in a Transwell plate and cultured until polarized. MDCK cells that are not transfected with human P-gp were used as a control. Compounds were added to either the apical or the basolateral side of the cells, and transport across the membrane was measured. […]
READOUT_LABEL: efflux ratio at 60 min

C[C@H]1O[C@@H](O[C@H]2[C@@H](O)C[C@H](O[C@H]3[C@@H](O)C[C@H](O[C@H]4CC[C@@]5(C)[C@H](CC[C@@H]6[C@@H]5C[C@@H](O)[C@]5(C)[C@@H](C7=CC(=O)OC7)CC[C@]65O)C4)O[C@@H]3C)O[C@@H]2C)C[C@H](O)[C@@H]1O : 352 to 398

###

# ASSAY_NOTES: in vivo
# CONDITION_PARAMETERS: DBA/2 J, mouse, plasma, po, 15 mg/kg
READOUT_LABEL: AUC (ng·h/mL)

C[C@@H]1C[C@H]2[C@@H]3CCC4=CC(=O)C=C[C@]4(C)C3=CC[C@]2(C)[C@@]1(O)C(=O)CO [Vamorolone] : 9350

###

# ASSAY_NOTES: in vivo
# CONDITION_PARAMETERS: DBA/2 J, mouse, plasma, po, 30 mg/kg
READOUT_LABEL: Cmax (ng/mL)

C[C@@H]1C[C@H]2[C@@H]3CCC4=CC(=O)C=C[C@]4(C)C3=CC[C@]2(C)[C@@]1(O)C(=O)CO : 2700

###

# System: P-gp (MDR1)
# ASSAY_NOTES: MDR1-MDCK permeability / P-gp efflux assay
# CONDITION_PARAMETERS: MDCK-MDR1, pH 7.4
READOUT_LABEL: efflux ratio at 60 min, 1 μM

C[C@@H]1C[C@H]2[C@@H]3CCC4=CC(=O)C=C[C@]4(C)C3=CC[C@]2(C)[C@@]1(O)C(=O)CO : 6.84
CC(=O)OCC(=O)[C@@]12N=C(C)O[C@@H]1C[C@H]1[C@@H]3CCC4=CC(=O)C=C[C@]4(C)[C@H]3[C@@H](O)C[C@@]12C : 60.2

###

# ASSAY_NOTES: in vivo
# CONDITION_PARAMETERS: C57BL/10, mouse, plasma, oral, 30 mg/kg
READOUT_LABEL: Cmax (µg/mL)

C[C@@H]1C[C@H]2[C@@H]3CCC4=CC(=O)C=C[C@]4(C)C3=CC[C@]2(C)[C@@]1(O)C(=O)CO : 8.79

###

# ASSAY_NOTES: in vivo
# CONDITION_PARAMETERS: DBA/2 J, mouse, plasma, po, 45 mg/kg
READOUT_LABEL: AUC (ng·h/mL)

C[C@@H]1C[C@H]2[C@@H]3CCC4=CC(=O)C=C[C@]4(C)C3=CC[C@]2(C)[C@@]1(O)C(=O)CO : 34100

###

# ASSAY_NOTES: MDCK control cell permeability (not transfected with human P-gp)
# CONDITION_PARAMETERS: dog, pH 7.4
Examples of molecules with documented efflux ratio at 60 min, 10 μM follow.
READOUT_LABEL: efflux ratio at 60 min, 10 μM

C[C@@H]1C[C@H]2[C@@H]3CCC4=CC(=O)C=C[C@]4(C)C3=CC[C@]2(C)[C@@]1(O)C(=O)CO : 0.746
CC(=O)OCC(=O)[C@@]12N=C(C)O[C@@H]1C[C@H]1[C@@H]3CCC4=CC(=O)C=C[C@]4(C)[C@H]3[C@@H](O)C[C@@]12C : 1.01

###

This section presents compounds with their documented efflux ratio at 60 min, 1 μM values.
# ASSAY_NOTES: MDCK control cell permeability (not transfected with human P-gp)
# CONDITION_PARAMETERS: dog, pH 7.4
READOUT_LABEL: efflux ratio at 60 min, 1 μM

C[C@@H]1C[C@H]2[C@@H]3CCC4=CC(=O)C=C[C@]4(C)C3=CC[C@]2(C)[C@@]1(O)C(=O)CO : 0.755
CC(=O)OCC(=O)[C@@]12N=C(C)O[C@@H]1C[C@H]1[C@@H]3CCC4=CC(=O)C=C[C@]4(C)[C@H]3[C@@H](O)C[C@@]12C : 0.949

###

# ASSAY_NOTES: MDCK control cell permeability (not transfected with human P-gp)
# CONDITION_PARAMETERS: dog, pH 7.4
READOUT_LABEL: Papp A→B at 60 min, 10 μM (×10⁻⁶ cm/s)

C[C@@H]1C[C@H]2[C@@H]3CCC4=CC(=O)C=C[C@]4(C)C3=CC[C@]2(C)[C@@]1(O)C(=O)CO : 33.4
C[C@]12C=CC(=O)C=C1CC[C@@H]1[C@@H]2C(=O)C[C@@]2(C)[C@H]1CC[C@]2(O)C(=O)CO : 2.09
CC(=O)OCC(=O)[C@@]12N=C(C)O[C@@H]1C[C@H]1[C@@H]3CCC4=CC(=O)C=C[C@]4(C)[C@H]3[C@@H](O)C[C@@]12C : 6.66
